Measurement record for VPS34 (Homo sapiens); quantity recorded: IC50.
readoutKind: IC50

• CC(=O)Nc1cc(-c2cc(-c3nnc[nH]3)n(-c3ccc(Cl)cc3Cl)n2)ccn1 = < 0.1 µM
• CCn1cc(-c2nnc[nH]2)cc1-c1ccnc(NC(C)=O)c1 = 0.1 to 1 µM
• Cc1cnc(NC(=O)C2CC2)cc1-c1cc(-c2nc[nH]n2)n(-c2ccccc2Cl)c1 = < 0.1 µM
• CC(=O)Nc1cc(-c2cc(C(N)=O)c(-c3ccnc(NC(C)=O)c3)n2C)ccn1 = 1 to 10 µM
• Cc1cnc(NC(=O)C2CC2)cc1-c1cc(C(N)=O)n(-c2ccccc2Cl)c1 = 0.1 to 1 µM
• CC(=O)Nc1cc(-c2cc(-c3nnc[nH]3)n(CC3CC3)c2)c(C)cn1 = < 0.1 µM
• CC(=O)Nc1cc(-c2cc(C(N)=O)n(-c3ccccc3Cl)n2)ccn1 = 1 to 10 µM
• CC(=O)Nc1cc(-c2cc(C(N)=O)n(-c3ncccc3Cl)c2)c(C)cn1 = 1 to 10 µM
• CC(=O)Nc1cc(-c2cc(-c3ccccc3C)c(C(N)=O)[nH]2)ccn1 = 0.1 to 1 µM
